The measurements presented in this section are drawn from patent US20170362301A1.

SYSTEM UNDER TEST: EGFR on cells (A431, NCI-H292, NCI-H322, NCI-H441) (human, UniProt P00533 25-1210)
EXPERIMENT SUMMARY: cell-based or functional assay
OUTCOME MEASURE: Phospho-EGFR IC50, A431 cells (nM)
Response body: numeric value in nM, unit text excluded.

Task item: Phospho-EGFR IC50, A431 cells lookup needed for P54AR4-17 (designed binder) LPAPKNLVVSEVTEDSLRLSWTYDRDGYDSFLIQYQESEKVGEAINLTVPGSERSYDLTGLKPGTEYTVSIYGVHNVYKDTNMRGLPLSAEFTT , thanks.
Reply: 184

Task item: Phospho-EGFR IC50, A431 cells lookup needed for P54CR4-31 (designed binder) LPAPKNLVVSEVTEDSLRLSWTAPDAAFDSFLIQYQESEKVGEAINLTVPGSERSYDLTGLKPGTEYTVSIYGVLGSYVFEHDVMLPLSAEFTT , thanks.
Reply: 179

Task item: Phospho-EGFR IC50, A431 cells lookup needed for P54AR4-48 (designed binder) LPAPKNLVVSEVTEDSLRLSWDDPRGFYESFLIQYQESEKVGEAINLTVPGSERSYDLTGLKPGTEYTVSIYGVHNVYKDTNMRGLPLSAEFTT , thanks.
Reply: 170

Task item: Phospho-EGFR IC50, A431 cells lookup needed for P54AR4-83 (designed binder) LPAPKNLVVSEVTEDSLRLSWDDPWAFYESFLIQYQESEKVGEAINLTVPGSERSYDLTGLKPGTEYTVSIYGVHNVYKDTNMRGLPLSAEFTT , thanks.
Reply: 18

Task item: Phospho-EGFR IC50, A431 cells lookup needed for P54AR4-73 (designed binder) LPAPKNLVVSEVTEDSLRLSWTWPYADLDSFLIQYQESEKVGEAINLTVPGSERSYDLTGLKPGTEYTVSIYGVHNVYKDTNMRGLPLSAEFTT , thanks.
Reply: 141
